tested on: MDA-MB-435; assay: NCI tumour cell line growth inhibition, 48 h
recorded_metric: TGI (µM)
Your answer should be a plain number; it is taken to be in µM.

The following compounds have reported results that may help.
{"columns": ["compound", "TGI / µM"],
 "data": [
  ["C=C1C(=O)O[C@H]2[C@H]1CC/C(COC(=O)OCCCCCOC(=O)OC/C1=C/CC[C@@]3(C)O[C@H]3[C@H]3OC(=O)C(=C)[C@@H]3CC1)=C\\CC[C@@]1(C)O[C@@H]21", 2.13],
  ["C[C@@H]1O[C@@H](O[C@H]2C[C@@H](O)[C@]3(CO)C4C(CC[C@]3(O)C2)[C@@]2(O)CC[C@H](C3=CC(=O)OC3)[C@@]2(C)C[C@H]4O)[C@H](O)[C@H](O)[C@H]1O (stereo not given in full)", 0.134],
  ["COc1ccc2c(c1)Oc1nc(N)c(C#N)c(N)c1C2Sc1ccc(SC)cc1 (stereo not given)", 3.23],
  ["CN(C)CC1CCC/C(=C\\c2ccc(N(C)C)cc2)C1=O (stereo not given)", 17.4],
  ["O=C(CCSC(CC(=O)c1ccc(Cl)cc1)c1ccc(Cl)cc1)Nc1ccc(Cl)cc1 (stereo not given)", 25.6]
]}

In: TGI of `O=C1Nc2ccc(Cl)cc2/C1=C\c1c(-c2ccc(F)cc2)nc2ccccn12` on MDA-MB-435?
Out: 5.03

In: Same thing, different compound: COc1ccc(-c2cc3c4c(nc5ccccc5c4c2)CC(c2cc(OC)c(OC)c(OC)c2)O3)cc1 (stereo not given)
Out: 13.7

In: Same thing, different compound: `COc1ccc2c(c1)C(=O)c1c-2c(NCCCN(C)C)nc2ccccc12`
Out: 15.4

In: Same thing, different compound: `Cc1ccc(NS(=O)(=O)c2ccc(-c3cnc(C4CC4)o3)cc2)cc1`
Out: 3.94

---

tested on: RPMI-8226 leukemia; assay: NCI tumour cell line growth inhibition, 48 h; in the data active = GI50 below about 0.43 µM; inactive = the rest
Form entry, call: pick from active, inactive

{"columns": ["smiles_text", "cat"],
 "data": [
  ["Cc1cc(N(CCCl)CCCl)ccc1C=Nc1cccnc1", "inactive"],
  ["Cn1ncc2cc(-c3cnc(N)c(Cl)c3N3CCC4(CCNC4=O)CC3)ccc21", "inactive"],
  ["O=S(=O)(Nc1ccc(-c2nc(-c3cccc(OCCN4CCOCC4)c3)c(-c3ccnc(Br)c3)[nH]2)cc1)c1ccccc1", "inactive"],
  ["O=C(NNc1nc2cc(F)ccc2n2c(CN3CCOCC3)ccc12)c1ccccc1", "active"]
]}

Kindly review the next molecule as well.
In: Test call, this molecule: `O=C(CC12CC3CC(CC(C3)C1)C2)NCCOCCOCCNC(=O)c1cc2c(o1)C(=O)c1ccccc1C2=O`
Out: inactive

---

tested on: UO-31 renal; experiment: NCI tumour cell line growth inhibition, 48 h
Cut-off 7 µM on TGI, inclusive. At or above means fulfilled; below means not fulfilled.

{"columns": ["compound", "cat"],
 "data": [
  ["COc1cc2c(-c3nc4cc(Cl)c(F)cc4s3)cc(=O)oc2c(C)c1OC", "not fulfilled"]
]}

In: Would you say `COc1ccc(-c2cc3cccc(OC)c3c(=O)o2)cc1OC` shows TGI at minimum 7 µM?
Out: fulfilled

In: Same thing, different compound: `CS(=O)(=O)NNS(=O)(=O)c1ccc(Br)cc1`
Out: fulfilled

In: Same thing, different compound: `Cc1cc(Br)c(N2C3=C(CC4=C2CCCC4=O)C(=O)CCC3)c(Br)c1`
Out: fulfilled

In: Same thing, different compound: `Cc1cccc(C)c1NC(=O)CCC(=O)NNC(=O)c1cc(O)c2ccccc2c1`
Out: fulfilled

Values compiled from PubChem BioAssay (NCI).
